Data provenance: patent US20210171576A1

target: human mitochondrial CIpP (HsCIpP) (Homo sapiens)
Construct: made in house; host or cells: E. coli SG1146 (BL21(DE3) ΔclpP::cat)
measurement-description: Screen of ADEP analogs against HsCIpP: relative degradation (RD) index, casein-FITC degradation relative to E. coli CIpAP
Assay type: biochemical
Parameters: key: casein-FITC degradation by HsClpP relative to EcClpAP
experimental-conditions: RD value at 5 μM of the ADEP analog
Where a SMILES comes first, the peptide text is derived from it. Bridges are numbered along the chain shown (N, C = ends). [ ]: non-standard residue; d: D form. The star is where a group is joined. Phe(3,5-F2) = N[C@@H](Cc1cc(F)cc(F)c1)C(=O)O; Pip(4S-Me) = C[C@H]1CCN[C@H](C(=O)O)C1; Pro(4R-Me) = C[C@H]1CN[C@H](C(=O)O)C1; Heptenoyl(2E) = CCCC/C=C/C(=O)*; Pip = O=C(O)[C@@H]1CCCCN1; Dap = NC[C@H](N)C(=O)O
reported-metric: Hs RD5

| molecule | target | reported-metric | result-value |
| --- | --- | --- | --- |
| CCCC/C=C/C(=O)N[C@@H](Cc1cc(F)cc(F)c1)C(=O)N[C@H]1COC(=O)[C@@H]2C[C@@H](C)CN2C(=O)[C@H](C)NC(=O)[C@@H]2C[C@@H](C)CCN2C(=O)[C@@H]2CCCN2C1=O [ADEP-30] ({Heptenoyl(2E)}-[Phe(3,5-F2)]SP[Pip(4S-Me)]A[Pro(4R-Me)]; ester 2-C) | human mitochondrial CIpP (HsCIpP) (Homo sapiens) | Hs RD5 | 0.93 |
| CCCC/C=C/C(=O)N[C@@H](Cc1cc(F)cc(F)c1)C(=O)N[C@H]1CNC(=O)[C@@H]2C[C@@H](C)CN2C(=O)[C@H](C)NC(=O)[C@@H]2CCCCN2C(=O)[C@@H]2CCCN2C1=O [ADEP-32] ({Heptenoyl(2E)}-[Phe(3,5-F2)][Dap]P[Pip]A[Pro(4R-Me)]; lactam 2-C) | human mitochondrial CIpP (HsCIpP) (Homo sapiens) | Hs RD5 | 0.96 |
| CCCC/C=C/C(=O)N[C@@H](Cc1ccccc1)C(=O)N[C@H]1COC(=O)[C@@H]2C[C@@H](C)CN2C(=O)[C@H](C)NC(=O)[C@@H]2CCCCN2C(=O)[C@@H]2CCCN2C1=O | human mitochondrial CIpP (HsCIpP) (Homo sapiens) | Hs RD5 | 0.85 |

---

target: human mitochondrial CIpP (HsCIpP) (Homo sapiens, UniProt Q16740)
Construct: made in house; host or cells: E. coli SG1146 (BL21(DE3) ΔclpP::cat)
Sequence (Q16740 57-277): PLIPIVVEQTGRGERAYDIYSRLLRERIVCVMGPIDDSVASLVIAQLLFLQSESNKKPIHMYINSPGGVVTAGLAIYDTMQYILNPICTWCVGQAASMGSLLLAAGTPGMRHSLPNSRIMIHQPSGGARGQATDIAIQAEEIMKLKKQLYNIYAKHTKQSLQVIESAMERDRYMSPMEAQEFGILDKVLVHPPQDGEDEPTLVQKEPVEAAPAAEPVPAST
measurement-description: Screen of ADEP analogs against HsCIpP: relative degradation (RD) index, casein-FITC degradation relative to E. coli CIpAP
Type: biochemical
Parameters: key: casein-FITC degradation by HsClpP relative to EcClpAP
experimental-conditions: RD value at 25 μM of the ADEP analog; measure of ability to activate HsCIpP
Where a SMILES comes first, the peptide text is derived from it. Bridges are numbered along the chain shown (N, C = ends). [ ]: non-standard residue; d: D form. The star is where a group is joined. Phe(3,5-F2) = N[C@@H](Cc1cc(F)cc(F)c1)C(=O)O; Pro(4R-Me) = C[C@H]1CN[C@H](C(=O)O)C1; Heptenoyl(2E) = CCCC/C=C/C(=O)*; aThr = C[C@H](O)[C@H](N)C(=O)O; Pip = O=C(O)[C@@H]1CCCCN1; NMeA = CN[C@@H](C)C(=O)O; Cbz = O=C(OCc1ccccc1)*; X4 = CCCCC/C=C/C(=O)*; X6 = CCCC/C=C\C(=O)*
Quick rule: Hs RD25 of at least 1 means Y, below that means N.

| compound | target | class-label |
| --- | --- | --- |
| CCC/C=C/C(=O)N[C@@H](Cc1cccc(F)c1)C(=O)N[C@H]1COC(=O)[C@@H]2C[C@@H](C)CN2C(=O)[C@H](C)NC(=O)[C@@H]2CCCCN2C(=O)[C@@H]2CCCN2C1=O | human mitochondrial CIpP (HsCIpP) (Homo sapiens, UniProt Q16740) | Y |
| CCCCC/C=C/C(=O)N[C@@H](Cc1ccccc1)C(=O)N[C@H]1COC(=O)[C@@H]2CCCN2C(=O)[C@H](C)NC(=O)[C@H](C)N(C)C(=O)[C@@H]2CCCN2C1=O [ADEP-18] (X4-FSP[NMeA]AP; ester 2-C) | human mitochondrial CIpP (HsCIpP) (Homo sapiens, UniProt Q16740) | Y |
| C[C@@H]1C[C@H]2C(=O)OC[C@H](NC(=O)[C@H](Cc3ccccc3)NC(=O)OCc3ccccc3)C(=O)N3CCC[C@H]3C(=O)N(C)[C@@H](C)C(=O)N[C@@H](C)C(=O)N2C1 [ADEP-16] (Cbz-FSP[NMeA]A[Pro(4R-Me)]; ester 2-C) | human mitochondrial CIpP (HsCIpP) (Homo sapiens, UniProt Q16740) | N |
| CCCC/C=C/C(=O)N[C@@H](Cc1c(F)c(F)c(F)c(F)c1F)C(=O)N[C@H]1COC(=O)[C@@H]2C[C@@H](C)CN2C(=O)[C@H](C)NC(=O)[C@@H]2CCCCN2C(=O)[C@@H]2CCCN2C1=O | human mitochondrial CIpP (HsCIpP) (Homo sapiens, UniProt Q16740) | N |
| CCCC/C=C\C(=O)N[C@@H](Cc1ccccc1)C(=O)N[C@H]1COC(=O)[C@@H]2CCCN2C(=O)[C@H](C)NC(=O)[C@H](C)N(C)C(=O)[C@@H]2CCCN2C1=O [ADEP-19] (X6-FSP[NMeA]AP; ester 2-C) | human mitochondrial CIpP (HsCIpP) (Homo sapiens, UniProt Q16740) | N |
| CCCC/C=C/C(=O)N[C@@H](Cc1ccccc1)C(=O)N[C@H]1COC(=O)[C@@H]2CCCN2C(=O)[C@H](C)NC(=O)[C@H](C)N(C)C(=O)[C@@H]2CCCN2C1=O [ADEP-01] ({Heptenoyl(2E)}-FSP[NMeA]AP; ester 2-C) | human mitochondrial CIpP (HsCIpP) (Homo sapiens, UniProt Q16740) | N |
| CCCC/C=C/C(=O)N[C@@H](Cc1cc(F)cc(F)c1)C(=O)N[C@@H]1C(=O)N2CCC[C@H]2C(=O)N2CCCC[C@H]2C(=O)N[C@@H](C)C(=O)N2C[C@H](C)C[C@H]2C(=O)O[C@H]1C [ADEP-29] ({Heptenoyl(2E)}-[Phe(3,5-F2)][aThr]P[Pip]A[Pro(4R-Me)]; ester 2-C) | human mitochondrial CIpP (HsCIpP) (Homo sapiens, UniProt Q16740) | N |
